System: MILI (PIWIL2) piRISC loaded with L1MC piRNA (26 nt);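 also: 1 nM active piRISC with 0.1 nM target library at 33 °C single turnover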
Test: pre-steady-state target cleavage rate (min^-1); guide: L1MC piRNA 5'p-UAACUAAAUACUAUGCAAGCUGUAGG; higher = faster piRNA-guided slicing of the target
Conditions: auxiliary factor: 500 nM mouse GTSF1
Parameter pre-steady-state target cleavage rate: see the listing below.

Reported pre-steady-state target cleavage rate (MILI (PIWIL2) piRISC loaded with L1MC piRNA (26 nt)) for entry UCCUGGAUGUGCUUGCAUAGCAUUUAGUUA is 0.0436

Reported pre-steady-state target cleavage rate (MILI (PIWIL2) piRISC loaded with L1MC piRNA (26 nt)) for entry UCCUGGAUGUCCUUGCAUAGUAGUUAGUUA is 0.13

Reported pre-steady-state target cleavage rate (MILI (PIWIL2) piRISC loaded with L1MC piRNA (26 nt)) for entry UCCUGGUACAGCUUGCAUAGUAUUAUGUUA is 0.131

Reported pre-steady-state target cleavage rate (MILI (PIWIL2) piRISC loaded with L1MC piRNA (26 nt)) for entry UCCUGGAUGUCGAACGUUAGUUUUUAGAUA is < 0.0001

---
Reported pre-steady-state target cleavage rate (MILI (PIWIL2) piRISC loaded with L1MC piRNA (26 nt)) for entry UCCUGCUACAGCUUGCAUAGUAAAAAGUUA is 0.214

Reported pre-steady-state target cleavage rate (MILI (PIWIL2) piRISC loaded with L1MC piRNA (26 nt)) for entry UCCUGCUUGUGCUUGCAUAGUAUUUAGUUA is 0.13

Reported pre-steady-state target cleavage rate (MILI (PIWIL2) piRISC loaded with L1MC piRNA (26 nt)) for entry UCCUGGAACAGCUUGCAUGUAUUUAGUUA is 0.083

Reported pre-steady-state target cleavage rate (MILI (PIWIL2) piRISC loaded with L1MC piRNA (26 nt)) for entry UCCUGCUACACCUUGCAUAGAAUUUAGUUA is 0.0952

Reported pre-steady-state target cleavage rate (MILI (PIWIL2) piRISC loaded with L1MC piRNA (26 nt)) for entry UCCUGCUUCAGCUUGCAUAGUAUUAAGUUA is 0.13

Reported pre-steady-state target cleavage rate (MILI (PIWIL2) piRISC loaded with L1MC piRNA (26 nt)) for entry UCCUGGUAGAGCUUGCAUAGUAUUUUCAAA is 0.00621

Reported pre-steady-state target cleavage rate (MILI (PIWIL2) piRISC loaded with L1MC piRNA (26 nt)) for entry UCCUGGAUGUGCUAGCAUAGUAUUUAGUUA is 0.125

Reported pre-steady-state target cleavage rate (MILI (PIWIL2) piRISC loaded with L1MC piRNA (26 nt)) for entry UCCUGGUACAGCUUGCAUUGUAUAUAGUUA is 0.087

Reported pre-steady-state target cleavage rate (MILI (PIWIL2) piRISC loaded with L1MC piRNA (26 nt)) for entry UCCUGGUACUCGUUGCAUAGUAUUUAGUAA is 0.0635

---

Tested on: MILI (PIWIL2) piRISC loaded with L1MC piRNA (26 nt);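 also: 1 nM active piRISC with 0.1 nM target library at 33 °C single turnover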
Assay: pre-steady-state target cleavage rate (min^-1); guide: L1MC piRNA 5'p-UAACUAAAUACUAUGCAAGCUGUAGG; MIWI and MILI are mouse PIWI proteins and EfPiwi is from a freshwater sponge; tags in brackets are library labels; higher = faster piRNA-guided slicing of the target
Settings: auxiliary factor: none (no GTSF1)
The label depends only on pre-steady-state target cleavage rate: TRUE if it is at least 0.008, FALSE if it is smaller.

Recorded results for 4 sequences are shown here.
## Task pre-steady-state target cleavage rate >= 0.008 for UCCUGGUUCAGCUUGCAUAGAAUUUAGUUA ?
## Result FALSE

## Task pre-steady-state target cleavage rate >= 0.008 for UCCUGGAUCAGCUAGCAUAGUAUUUAGUUA ?
## Result TRUE

## Task pre-steady-state target cleavage rate >= 0.008 for UCCUGGAUGUGCUUGCAUACUAUUUAGUUA ?
## Result FALSE

## Task pre-steady-state target cleavage rate >= 0.008 for UCCUGGAUCAGCUUGGUUAGUAUUUAGUUA ?
## Result TRUE

---
## Task pre-steady-state target cleavage rate >= 0.008 for UCCUCCUAGAGCUUGGAUAGUAUUUAGUUA ?
## Result FALSE

## Task pre-steady-state target cleavage rate >= 0.008 for UCCUGGUGCAGCUUGCAUAGUAUUUAGUUA ?
## Result TRUE

## Task pre-steady-state target cleavage rate >= 0.008 for UCCUGGAUGUCGAUGCAUAGUUUUUAGUUA ?
## Result FALSE
